Values from PubChem BioAssay (NCI)

Experiment: NCI Yeast Anticancer Drug Screen. Data for the cln2 rad14 strain (AID 165);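 further: 0% = growth equal to vehicle treated cultures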
Experimental context: S. cerevisiae cln2 rad14 strain, at 50.0 µM
About 79,000 compounds went through this panel and 15% of them were active in at least one assay; those are over-represented in the sample as a whole. Active and inactive are the calls of the source. No stated cut-off is given here; in the data, active means growth inhibition above about 70%; inactive means the rest.
Classes used: active, inactive

1) COC(=O)c1[nH]cnc1/N=N/N(C)C    active
2) CC(C)(CN1CCCCC1)C(=O)/C=C/c1ccc(Cl)c(Cl)c1    active
3) COc1ccc(OC)c2c(C(=O)O)c(C(C)c3ccccc3)ccc12 (stereo not drawn)    active
4) O=C(Nc1cccc(Br)c1)Oc1cccc2cccnc12    active
5) COCCN1C(=O)C2c3[nH]c4ccccc4c3C3CCC(C(C)(C)C)CC3C2C1=O (stereo not drawn)    active
6) CCN(CC)CCN1C(=O)c2c(c3c4cccc(Cl)c4n(C4OC(CO)C(OC)C(O)C4O)c3c3[nH]c4c(Cl)cccc4c23)C1=O (stereo not drawn)    active
7) O=[N+]([O-])c1cc(I)c(O)c(/C=N/NS(=O)(=O)c2ccc(Cl)cc2)c1    inactive
8) C=C(CCC(C)C1CCC2(C)C3=C(CC(O)C12C)C1(C)CCC(O)C(C)(C)C1CC3)C(C)C(=O)O (stereo not drawn)    active
9) CS(=O)(=O)c1nc(Cl)c(Cl)c(C#N)c1Cl    active
10) CN(C)CC1CC/C(=C\c2ccc(O)cc2)C1=O (stereo not drawn)    active
11) O=Nc1c(O)ccc2ccccc12.[Fe].[Na+]    active
12) Cc1cc(N)c2c(c1O)C(=O)c1ccccc1C2=O    inactive
13) O=S(O)CCCCCSSc1ccccc1    inactive
14) c1cc[c]([Sn]([S]c2cccc3cccnc23)([S]c2cccc3cccnc23)[c]2ccccc2)cc1    active
15) O=C(Nc1ccccc1F)C(Br)C(Br)c1ccccc1 (stereo not drawn)    active
16) O=C1NC(c2cccc3ccccc23)Nc2ccc(Cl)cc21 (stereo not drawn)    inactive
17) O=C(CCN1CCCCC1)/C(=C\c1ccc(Cl)cc1)c1ccccc1    active
18) CCCCCCCC/C=C\CCCCCCCCN1CCOCC1    active
19) CC[N+]1=C(/C=C\c2cc(C)c3cccnc3c2O)C(C)(C)c2ccccc21    active
20) O=C(Nc1ccccc1)c1cc(Cl)ccc1O    inactive
21) CC(C)=Cc1cc2c(cc1O)CCC1C2CC[C@@]2(C)C1CC[C@@H]2O (stereo partly drawn)    active
22) CC1=C(C(=O)Nc2cc(O)ccc2O)C(c2cccc([N+](=O)[O-])c2)C(C(=O)Nc2cc(O)ccc2O)=C(C)N1    inactive
23) O=C=Nc1ccccc1-c1ccc([N+](=O)[O-])cc1Cl    inactive

====

Examples of molecules with documented growth inhibition follow.
Experiment: NCI Yeast Anticancer Drug Screen. Data for the sgs1 mgt1 strain (AID 161);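 further: 0% = growth of cultures given vehicle only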
Experimental context: S. cerevisiae sgs1 mgt1 strain, at 5.0 µM (retest, dose inferred, filed as 0.5), hits give high values
About 79,000 compounds went through this panel and 15% of them were active in at least one assay; those are over-represented in the sample as a whole.
Assay endpoint: growth inhibition (%)

1) O=C(O)C(O)C(O)C(O)C(O)c1nc2ccccc2s1 (stereo not given)    12
2) CN(C)CCOc1ccc2c(c1)C(=O)/C(=C\c1ncc([N+](=O)[O-])n1C)C2    21
3) CC/C(=N\NS(=O)(=O)c1ccc(C)cc1)c1cccc(OC)c1    50
4) C(=N\Nc1ccc2ccccc2n1)/c1ccccn1.CC(=O)[O-].CC(=O)[O-].[Zn+2]    -3
5) COc1ccc2c(c1)CCc1c-2ccc(C)c1CCC(=O)O    19
6) Cc1cccc(C)c1N1C(=O)C(=O)C(c2nc3ccccc3s2)/C(=N/NC(=O)c2ccccc2O)C1=O (stereo not given)    26
7) C[n+]1c(-c2ccc(/C=N/NC(=O)C(=O)N/N=C/c3ccc(-c4cn5ccccc5[n+]4C)cc3)cc2)cn2ccccc21    69
8) CC(=O)Nc1ccc(C(=O)n2[nH]c(C)c(/C=C3\C(=O)C=Cc4ccccc43)c2=O)cc1    15
9) CCCCC(CC)(CCC)CCN (stereo not given)    1
10) NC1=CC(=O)c2ccccc2C1=O    26
